Measured Emax of individual entries
target: sGC α1/β1 heterodimer (Homo sapiens (Human), UniProt Q02108+Q02153); assay: Cell-based sGC functional assay (CASA assay), cGMP by HTRF; details: CHO-K1, cGMP production as percentage of maximum of compound A (set to 100%); CHO-K1/sGC cells; read-out: % Activation
Sequence (Q02108 whole entry): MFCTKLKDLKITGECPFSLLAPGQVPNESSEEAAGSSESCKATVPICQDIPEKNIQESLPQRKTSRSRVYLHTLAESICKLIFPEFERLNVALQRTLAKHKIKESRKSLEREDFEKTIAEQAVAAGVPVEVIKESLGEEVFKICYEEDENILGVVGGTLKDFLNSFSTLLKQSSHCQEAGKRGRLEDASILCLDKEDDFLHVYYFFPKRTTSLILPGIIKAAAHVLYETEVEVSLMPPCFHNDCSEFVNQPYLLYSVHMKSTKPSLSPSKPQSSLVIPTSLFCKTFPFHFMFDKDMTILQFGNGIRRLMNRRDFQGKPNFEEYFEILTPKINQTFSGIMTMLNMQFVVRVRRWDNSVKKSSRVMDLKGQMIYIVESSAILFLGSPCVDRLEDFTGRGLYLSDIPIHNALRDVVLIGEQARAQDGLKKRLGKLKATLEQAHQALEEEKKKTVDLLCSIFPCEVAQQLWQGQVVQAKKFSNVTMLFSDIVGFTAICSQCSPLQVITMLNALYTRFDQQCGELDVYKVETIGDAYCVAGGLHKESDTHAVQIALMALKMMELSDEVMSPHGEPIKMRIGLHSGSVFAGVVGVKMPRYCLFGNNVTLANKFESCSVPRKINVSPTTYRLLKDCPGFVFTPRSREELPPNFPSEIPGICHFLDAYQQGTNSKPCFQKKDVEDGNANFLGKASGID
Sequence (Q02153 whole entry): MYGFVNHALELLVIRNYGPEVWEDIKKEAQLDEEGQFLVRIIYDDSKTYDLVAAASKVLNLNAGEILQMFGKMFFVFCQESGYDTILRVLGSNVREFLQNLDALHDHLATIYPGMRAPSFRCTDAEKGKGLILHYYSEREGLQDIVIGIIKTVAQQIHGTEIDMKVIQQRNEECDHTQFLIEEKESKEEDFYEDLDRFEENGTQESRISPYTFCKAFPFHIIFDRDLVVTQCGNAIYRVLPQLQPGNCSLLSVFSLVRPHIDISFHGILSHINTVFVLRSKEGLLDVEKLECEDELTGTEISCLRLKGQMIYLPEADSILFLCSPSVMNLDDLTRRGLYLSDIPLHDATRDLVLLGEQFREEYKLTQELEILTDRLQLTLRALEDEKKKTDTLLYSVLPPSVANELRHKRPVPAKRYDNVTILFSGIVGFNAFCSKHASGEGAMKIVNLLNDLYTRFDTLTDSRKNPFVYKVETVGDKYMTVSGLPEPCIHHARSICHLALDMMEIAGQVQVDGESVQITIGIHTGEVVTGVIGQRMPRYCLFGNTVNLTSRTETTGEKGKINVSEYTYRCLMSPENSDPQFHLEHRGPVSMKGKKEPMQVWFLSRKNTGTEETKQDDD
assayEndpoint: Emax (%)

                                    compound                         measurementtarget  assayendpoint  reportedvalue
 0  CC1(c2ccc(Cl)c(O)c2)C(=O)Nc2nc(-c3cn4ncnc4c(CCCC(F)(F)F)n3)nc(N)c21 (centres unmarked)  sGC α1/β1 heterodimer (Homo sapiens (Human), UniProt Q02108+Q02153)           Emax            111
 1  CC1(c2cc(O)c(F)c(F)c2)C(=O)Nc2nc(-c3cn4ccnc4c(Cc4ccccc4F)n3)nc(N)c21 (centres unmarked)  sGC α1/β1 heterodimer (Homo sapiens (Human), UniProt Q02108+Q02153)           Emax             85
 2  CC1(c2ccc(F)c(Cl)c2O)C(=O)Nc2nc(-c3cn4ccnc4c(Cc4cc(F)cc(F)c4)n3)nc(N)c21 (centres unmarked)  sGC α1/β1 heterodimer (Homo sapiens (Human), UniProt Q02108+Q02153)           Emax            169
 3  CC1(c2ccc(O)cc2)C(=O)Nc2nc(-c3cn4ncnc4c(CCC(F)(F)C(F)(F)F)n3)nc(N)c21 (centres unmarked)  sGC α1/β1 heterodimer (Homo sapiens (Human), UniProt Q02108+Q02153)           Emax             70
 4  CC1(c2cc(O)ccn2)C(=O)Nc2nc(-c3cn4ncnc4c(Cc4cccc(F)c4)n3)nc(N)c21 (centres unmarked)  sGC α1/β1 heterodimer (Homo sapiens (Human), UniProt Q02108+Q02153)           Emax            159
 5  CC1(c2cc(O)c(C#N)c(F)c2)C(=O)Nc2nc(-c3cn4ccnc4c(Cc4ccccc4F)n3)nc(N)c21 (centres unmarked)  sGC α1/β1 heterodimer (Homo sapiens (Human), UniProt Q02108+Q02153)           Emax             76
 6  CC1(c2ccc(O)c(F)c2)C(=O)Nc2nc(-c3cn4ccnc4c(Cc4cccc(F)c4)n3)nc(N)c21 (centres unmarked)  sGC α1/β1 heterodimer (Homo sapiens (Human), UniProt Q02108+Q02153)           Emax            164
 7  CC1(c2cc(O)c(C#N)c(Cl)c2)C(=O)Nc2nc(-c3cn4ncnc4c(CC4CCCCC4)n3)nc(N)c21 (centres unmarked)  sGC α1/β1 heterodimer (Homo sapiens (Human), UniProt Q02108+Q02153)           Emax             96
 8  CC1(c2cc(O)c(Cl)cn2)C(=O)Nc2nc(-c3cn4ncnc4c(Cc4ccccc4F)n3)nc(N)c21 (centres unmarked)  sGC α1/β1 heterodimer (Homo sapiens (Human), UniProt Q02108+Q02153)           Emax            105
 9  CCCCc1nc(-c2nc(N)c3c(n2)NC(=O)C3(C)c2ccc(Cl)c(O)c2)cn2ccnc12 (centres unmarked)  sGC α1/β1 heterodimer (Homo sapiens (Human), UniProt Q02108+Q02153)           Emax             85
10  CCCCc1nc(-c2nc(N)c3c(n2)NC(=O)C3(C)c2ccc(F)c(O)c2)cn2ncnc12 (centres unmarked)  sGC α1/β1 heterodimer (Homo sapiens (Human), UniProt Q02108+Q02153)           Emax             97
11  CC1(c2ccc(Cl)c(O)c2)C(=O)Nc2nc(-c3cn4ccnc4c(Cc4cccc(F)c4)n3)nc(N)c21 (centres unmarked)  sGC α1/β1 heterodimer (Homo sapiens (Human), UniProt Q02108+Q02153)           Emax            118
12  CC1(c2cc(O)c(C#N)c(F)c2)C(=O)Nc2nc(-c3cn4ncnc4c(Cc4cc(F)cc(F)c4)n3)nc(N)c21 (centres unmarked)  sGC α1/β1 heterodimer (Homo sapiens (Human), UniProt Q02108+Q02153)           Emax             94
13  CC1(c2cccc(O)c2)C(=O)Nc2nc(-c3cn4ccnc4c(Cc4cccc(F)c4)n3)nc(N)c21 (centres unmarked)  sGC α1/β1 heterodimer (Homo sapiens (Human), UniProt Q02108+Q02153)           Emax            120

* * *

Measured Emax of individual entries
target: sGC α1/β1 heterodimer (Homo sapiens (Human), UniProt Q02108+Q02153); test: Cell-based sGC functional assay (CASA assay), cGMP by HTRF; conditions: CHO-K1, cGMP production as percentage of maximum of compound A (set to 100%); CHO-K1/sGC cells; read-out: % Activation
assayEndpoint: Emax (%)

>>> df
                                   molecule  assayendpoint  reportedvalue
0  CC1(c2ccc(Cl)c(O)c2)C(=O)Nc2nc(-c3cn4ccnc4c(CC4CCC(F)(F)CC4)n3)nc(N)c21 (stereo not shown)           Emax             96
1  CC1(c2cccc(O)c2)C(=O)Nc2nc(-c3cn4ccnc4c(Cc4cc(F)ccc4F)n3)nc(N)c21 (stereo not shown)           Emax            137
2  CC1(c2cccc(O)c2)C(=O)Nc2nc(-c3cn4ccnc4c(Cc4ccccc4)n3)nc(N)c21 (stereo not shown)           Emax            107
3  CC1(c2ccc(Cl)c(O)c2)C(=O)Nc2nc(-c3cn4ccnc4c(Cc4ccc(F)cc4)n3)nc(N)c21 (stereo not shown)           Emax             88
4  CCCCc1nc(-c2nc(N)c3c(n2)NC(=O)C3(C)c2ccc(O)cc2)cn2ncnc12 (stereo not shown)           Emax             81
5  CC1(c2ccc(O)c(F)c2)C(=O)Nc2nc(-c3cn4ccnc4c(Cc4ccccc4)n3)nc(N)c21 (stereo not shown)           Emax            137
6  CC1(c2cc(O)c(Cl)cn2)C(=O)Nc2nc(-c3cn4ncnc4c(CC4CCCCC4)n3)nc(N)c21 (stereo not shown)           Emax            108

* * *

Molecular target: sGC α1/β1 heterodimer (Homo sapiens (Human), UniProt Q02108+Q02153)
Experiment: Cell-based sGC functional assay (CASA assay), cGMP by HTRF
Conditions: inflection point of cGMP production, 4P fit; CHO-K1/sGC cells; read-out: IP
Experimental: Cell-Based sGC Functional Assay (Cyclic GMP Assay for sGC Activator: CASA Assay) Soluble guanylate cyclase (sGC) is a heme-containing enzyme that converts GTP to secondary messenger cGMP. […] A CHO-K1 cell line stably expressing the sGC α1/β1 heterodimer was generated using a standard transfection protocol. […] The level of intracellular cGMP was determined using an HTRF-based assay kit (CisBio, 62GM2PEC), which detects the displacement of a fluorescence labeled cGMP from its specific antibody. […]
Measured EC50 of individual entries

compound	EC50 (nM)
CC1(c2cc(O)c(Cl)cn2)C(=O)Nc2nc(-c3cn4ccnc4c(Cc4cccc(F)c4)n3)nc(N)c21 (stereo not shown) [Example 51-B]	1020
CC1(c2ccc(F)c(O)c2)C(=O)Nc2nc(-c3cn4ccnc4c(Cc4ccc(F)cc4F)n3)nc(N)c21 (stereo not shown) [Example 22-B]	74
CC1(c2ccc(O)c(F)c2)C(=O)Nc2nc(-c3cn4ccnc4c(Cc4ccc(F)cc4)n3)nc(N)c21 (stereo not shown) [Example 29-B]	67
CC1(c2ccc(F)c(O)c2)C(=O)Nc2nc(-c3cn4ccnc4c(CCC(F)(F)C(F)(F)F)n3)nc(N3CC(O)(C(F)(F)F)C3)c21 (stereo not shown) [Example 129-B]	1890

* * *

target: sGC α1/β1 heterodimer (Homo sapiens (Human), UniProt Q02108+Q02153); test: Cell-based sGC functional assay (CASA assay), cGMP by HTRF; settings: inflection point of cGMP production, 4P fit; CHO-K1/sGC cells; read-out: IP
pEC50: −log10 of the molar value.

molecule	pEC50
CC1(c2ccc(F)c(O)c2)C(=O)Nc2nc(-c3cn4ccnc4c(CCC4CCCCC4)n3)nc(N)c21 (stereo not shown)	6.78
CC1(c2ccc(F)c(O)c2)C(=O)Nc2nc(-c3cn4ncnc4c(CCC(F)(F)C(F)(F)F)n3)nc(N)c21 (racemic)	6.86
CC1(c2cc(O)ccn2)C(=O)Nc2nc(-c3cn4ncnc4c(CC4CCCCC4)n3)nc(N)c21 (stereo not shown)	6.66
CC1(c2ccc(Cl)c(O)n2)C(=O)Nc2nc(-c3cn4ccnc4c(CC4CCCCC4)n3)nc(N)c21 (stereo not shown)	6.44
CC1(c2cc(O)c(C(F)(F)F)cn2)C(=O)Nc2nc(-c3cn4ccnc4c(CC4CCCCC4)n3)nc(N)c21 (stereo not shown)	5.92
Cc1cccc(Cc2nc(-c3nc(N)c4c(n3)NC(=O)C4(C)c3ccc(O)c(F)c3)cn3ccnc23)c1 (stereo not shown)	5.00
CC1(c2ccc(Cl)c(O)c2)C(=O)Nc2nc(-c3cn4ccnc4c(Cc4ccc(F)cc4)n3)nc(N3CCC(F)(F)CC3)c21 (stereo not shown)	6.29
CCCCc1nc(-c2nc(N)c3c(n2)NC(=O)C3(C)c2ccc(O)c(Cl)c2)cn2ncnc12 (stereo not shown)	6.88
CC1(c2ccc(O)c(F)c2)C(=O)Nc2nc(-c3cn4ccnc4c(Cc4cccc(Cl)c4)n3)nc(N)c21 (stereo not shown)	6.41
CC1(c2ccc(Cl)c(O)c2)C(=O)Nc2nc(-c3cn4ccnc4c(CCC(F)(F)C(F)(F)F)n3)nc(N)c21 (stereo not shown)	6.10
CC1(c2cc(O)c(C#N)c(F)c2)C(=O)Nc2nc(-c3cn4ccnc4c(CC4CCCCC4)n3)nc(N)c21 (stereo not shown)	6.02
CC1(c2ccc(O)c(F)c2)C(=O)Nc2nc(-c3cn4ccnc4c(CCC4CCCCC4)n3)nc(N)c21 (stereo not shown)	6.50
CC1(c2cc(O)c(Cl)cn2)C(=O)Nc2nc(-c3cn4ccnc4c(CC4CCCC4)n3)nc(N)c21 (stereo not shown)	5.87
CC1(c2ccc(C(F)(F)F)c(O)c2)C(=O)Nc2nc(-c3cn4ccnc4c(Cc4cccc(F)c4)n3)nc(N)c21 (stereo not shown)	6.32
CC1(c2cccc(O)c2)C(=O)Nc2nc(-c3cn4ccnc4c(Cc4cc(F)cc(F)c4)n3)nc(N)c21 (stereo not shown)	6.70
CC1(c2cc(O)c(Cl)cn2)C(=O)Nc2nc(-c3cn4ccnc4c(Cc4cc(F)cc(F)c4)n3)nc(N)c21 (stereo not shown)	6.43
CC1(c2ccc(Cl)c(O)c2)C(=O)Nc2nc(-c3cn4ccnc4c(Cc4c(F)cccc4F)n3)nc(N)c21 (stereo not shown)	7.03
CC1(c2ccc(O)c(F)c2)C(=O)Nc2nc(-c3cn4ccnc4c(CCC(F)(F)C(F)(F)F)n3)nc(N)c21 (racemic)	6.96
CC1(c2ccc(Cl)c(O)c2)C(=O)Nc2nc(-c3cn4ncnc4c(CCC(F)(F)C(F)(F)F)n3)nc(NCC(O)C(F)(F)F)c21 (single isomer, unassigned) [Example 133-AA]	5.89
CC1(c2cc(O)c(Cl)cn2)C(=O)Nc2nc(-c3cn4ccnc4c(Cc4ccc(F)cc4)n3)nc(N)c21 (stereo not shown)	5.54
CC1(c2ccc(O)cc2)C(=O)Nc2nc(-c3cn4ccnc4c(CCC(F)(F)C(F)(F)F)n3)nc(N)c21 (stereo not shown)	6.45
CCCCc1nc(-c2nc(N)c3c(n2)NC(=O)C3(C)c2ccc(Cl)c(O)c2)cn2ccnc12 (stereo not shown)	6.84
CC1(c2ccc(O)cc2)C(=O)Nc2nc(-c3cn4ccnc4c(Cc4ccc(F)cc4)n3)nc(N)c21 (stereo not shown)	6.85
CC1(c2cccc(O)c2)C(=O)Nc2nc(-c3cn4ccnc4c(Cc4cc(F)ccc4F)n3)nc(N)c21 (stereo not shown)	6.30
CC(C)CCc1nc(-c2nc(N)c3c(n2)NC(=O)C3(C)c2ccc(O)c(F)c2)cn2ccnc12 (stereo not shown)	7.38
CC1(c2cc(O)c(Cl)cn2)C(=O)Nc2nc(-c3cn4ccnc4c(Cc4cc(F)ccc4F)n3)nc(N)c21 (stereo not shown)	5.90
CC(C)CCc1nc(-c2nc(N)c3c(n2)NC(=O)C3(C)c2ccc(C(F)(F)F)c(O)c2)cn2ccnc12 (stereo not shown)	5.88
CC(C)CCc1nc(-c2nc(N)c3c(n2)NC(=O)C3(C)c2ccc(F)c(O)c2)cn2ccnc12 (stereo not shown)	7.15
